assay: yeast display, Sf9 membrane polyspecificity reagent, FACS + sequencing; frameworks hold sequencing errors
VALUE_KIND: polyreactivity (PSR sort gate)

Completed entries (count: 4):
[[record]]
primary_sequence = "QVQLVESGGGLVQAGGSLRLSCAASGRTLKVYAMGWYRQAPGKERELVAAINNGGSTNYADSVKGRFTISRDNAKNTVYLQMNSLKPEDTAVYYCNAVYYARYRNYTYYYWGQGTQVTVSS"
data_value = "high polyreactivity"

[[record]]
primary_sequence = "QVQLVESGGGLVQAGGSLRLSCAASGRTFTRYTSGSYRPAPGKERELVAAIRYSGGSTYYADSVKGRFTISGDNAKNTVYLQMNSLKPEDTAVYYCAARSYYYGFLYRYDYWGQGTQVTVSS"
data_value = "low polyreactivity"

[[record]]
primary_sequence = "QVQLVESGGGLVQAGGSLRLSCAASGRTFYYYVMGWYRQAPGKERELVAAINSGGNTNYADSVKGRFTISRDNAKNTVYLQMNSLKPEDTAVYYCAADHYRSFRYFESSSTHDYWGQGTQVNVSS"
data_value = "low polyreactivity"

[[record]]
primary_sequence = "QVQLVESGGGLVQAGGSLRLSCAASGFIFQGYAMGWYRQAHGKEREFVAAITTSGGTTYYADSVKGSFTISRDNAKNTVYLQKNSLKPEDTAVYYCAARGATVSTRIYGYWGQGPQVTVSS"
data_value = "high polyreactivity"


Prompt: Requested read-out: polyreactivity (PSR sort gate). Entry: QVQLVESGGGLVQAGGSLRLSCAASGSTFYPYAMGWYRQAPGKERELVAVISWRGGSTYYADSVKGRFTISRDNAKNTVYLQMNSLKPEDTAVYYCGASGYRGYEYWGQGTQVTVSS
Completion: high polyreactivity
